Data origin: the RNAGym collection of RNA variant scans (doi:10.7554/elife.80360)

B1: HDV Ribozyme (parent)
chain: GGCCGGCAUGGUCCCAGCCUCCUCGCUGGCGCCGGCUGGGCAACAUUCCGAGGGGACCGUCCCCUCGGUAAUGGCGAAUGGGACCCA

variants of: B1; assay: self-cleavage, relative activity (ratio to wild type); higher = more cleavage; co-transcriptional
value type: self-cleavage
// response body must contain only the number

| primary sequence | self-cleavage |
| --- | --- |
| GGCCGGCAUGGUCCCUGCCUCCUCGCGGGCGCCGGCUGGGCAACAUUCCGAGGGGACCGUCCCCUCGGUAAUGGCGAAUGGGACCCA [A16U U27G] | 0.665 |
| GGCCGGCAUGGUCCCAGCCUCCUCGCUGGCGCCGGCUGGGCAACAUUCCGAGGGGACCGUCACCUCGGUAAUGGCGAAUGGGACUCA [C62A C85U] | 1.05 |
| GGCCGGCAUGGUCCCAGCCUCCUCGCUGGCGCCGGCUGCGCAACAUUCCGAGGGGACCGUCACCUCGGUAAUGGCGAAUGGGACCCA [G39C C62A] | 0.244 |

QUERY: What value of self-cleavage has been recorded for this entry: GGCCGGCAUGGUCCCAGCCUCCUCGCUGGCGCCGGCUGGGCAGCAUUCAGAGGGGACCGUCCCCUCGGUAAUGGCGAAUGGGACCCA [A43G C49A]
RESULT: 0.554

QUERY: What value of self-cleavage has been recorded for this entry: GGCCGGCAUUGUCCCAGCCUCCUCGCUGGCGCCGGCUGGGCAACAUUCCGAGGGGACCGUCCCCUCGGUAAUGGCGAAUGGUACCCA [G10U G82U]
RESULT: 0.248

QUERY: What value of self-cleavage has been recorded for this entry: GGCCGGCAUGGUCCCGGCCUCCUCGCUGGCGCUGGCUGGGCAACAUUCCGAGGGGACCGUCCCCUCGGUAAUGGCGAAUGGGACCCA [A16G C33U]
RESULT: 0.802

QUERY: What value of self-cleavage has been recorded for this entry: GGCCGGCAUGGUCCCAGCCUCCCCGCUGGCGCCGGCUGGGGAACAUUCCGAGGGGACCGUCCCCUCGGUAAUGGCGAAUGGGACCCA [U23C C41G]
RESULT: 0.201

QUERY: What value of self-cleavage has been recorded for this entry: GGACGGAAUGGUCCCAGCCUCCUCGCUGGCGCCGGCUGGGCAACAUUCCGAGGGGACCGUCCCCUCGGUAAUGGCGAAUGGGACCCA [C3A C7A]
RESULT: 0.044

QUERY: What value of self-cleavage has been recorded for this entry: GGCCGGGAUGGUCCCAGCCUCCCCGCUGGCGCCGGCUGGGCAACAUUCCGAGGGGACCGUCCCCUCGGUAAUGGCGAAUGGGACCCA [C7G U23C]
RESULT: 0

QUERY: What value of self-cleavage has been recorded for this entry: GGCCGGCAUGGUCCCAGCCUCCUCGCUGGCGACGGCUGGGCAACAUUCCGAGGGGACCAUCCCCUCGGUAAUGGCGAAUGGGACCCA [C32A G59A]
RESULT: 0.373

QUERY: What value of self-cleavage has been recorded for this entry: GGCCGGCAUGGUCCCAGCCUCCUCGUUGGCGCCGGCUGGUCAACAUUCCGAGGGGACCGUCCCCUCGGUAAUGGCGAAUGGGACCCA [C26U G40U]
RESULT: 1.03

QUERY: What value of self-cleavage has been recorded for this entry: GGCCGGCAUGGUCCCAGCCUCCUCGCUGGCGCCGGCUGGGUAACAUUCCGAGGGGCCCGUCCCCUCGGUAAUGGCGAAUGGGACCCA [C41U A56C]
RESULT: 1.04

QUERY: What value of self-cleavage has been recorded for this entry: GGCAGGCAUGGUCCCAGCCUCGUCGCUGGCGCCGGCUGGGCAACAUUCCGAGGGGACCGUCCCCUCGGUAAUGGCGAAUGGGACCCA [C4A C22G]
RESULT: 0.102

QUERY: What value of self-cleavage has been recorded for this entry: GGCCGGCAUGGUCCCAGCCUCCUCGCUGGCGCCGGCUGGGCAACAUUCCGAGGGGACCGUCCCCUCGGUAAUGGCCAAUGCGACCCA [G76C G81C]
RESULT: 0.0875

QUERY: What value of self-cleavage has been recorded for this entry: GGCCGGCAUAGUCCCAGCCUCCUCGCUGGCGCCGGCUGCGCAACAUUCCGAGGGGACCGUCCCCUCGGUAAUGGCGAAUGGGACCCA [G10A G39C]
RESULT: 0.182

QUERY: What value of self-cleavage has been recorded for this entry: GGCCGGCAUGGUCCCAGCCUCCUCGCAGGCGCCGGCUGGGCAACAUUCCGAGGGGACCGUCCCCUCGGUAAUGGGGAAUGGGACCCA [U27A C75G]
RESULT: 0.095

QUERY: What value of self-cleavage has been recorded for this entry: GGCCGGCAUGGUCCCAGCCUCAUCGCUGGCGCCGGCUGGGCAACAUUCCGAGGGGACCGUCCCCUCGGUAAUGGCGAUUGGGACCCA [C22A A78U]
RESULT: 0

QUERY: What value of self-cleavage has been recorded for this entry: GGCCGGCAUGGUCCCAGCCUCCUCGGUGGCGCCGGCUGGGCAACAUUCCGAGGGGACCGUCCCCUCGGUAAUGGCGAAUGGGACCCC [C26G A87C]
RESULT: 1.02

QUERY: What value of self-cleavage has been recorded for this entry: GGCCGGCAUGGUCCCAGCCUCCUCGCUGGCGCCGGCUGGGCAAACUUCCGAGGGGACCGUCCCCUCGGUAAUGGCGAAUGGGACCCA [C44A A45C]
RESULT: 0.692

QUERY: What value of self-cleavage has been recorded for this entry: GGCCGGCAUGGUCCCAGCCUCCUCGCUGGCGCCGGCUGGGCAACAUUCCGAGGGGACCGUCCCCUCGGUCAUGGCGAGUGGGACCCA [A70C A78G]
RESULT: 0.519

QUERY: What value of self-cleavage has been recorded for this entry: GGCCGGCAUGGUCCCAGCCUCCUCGCUAGCGCCGGCUGGGCAACAUCCCGAGGGGACCGUCCCCUCGGUAAUGGCGAAUGGGACCCA [G28A U47C]
RESULT: 0.0739
